# TGT: C-CBL (Homo sapiens)
# Construct: endogenous in cells; host or cells: Jurkat HiBit-IL2 reporter cells, CBL-B knocked out by CRISPR
# PROCEDURE SUMMARY: Jurkat HiBit-IL2 assay (CBL-B KO), reporter cell line expressing C-CBL only
# Format: cell-based
# CONDITION PARAMETERS: CBL-B KO (expressing C-CBL only), geometric mean, Table 16b (further repetition), read-out: CBL-B KO EC50 (nM) GMean
For each record, write down the corresponding EC50.
Numbers only here, please. The scale is nM.

Param request: EC50 | system C-CBL (Homo sapiens) | item CC(NC(=O)[C@H](C)O)c1nc(C(F)(F)F)cc2c(-c3cccc([C@H](c4nncn4C)C4CCC4)c3)n[nH]c12 (single isomer, unassigned)
491

Param request: EC50 | system C-CBL (Homo sapiens) | item C[C@H](N[C@@H]1CC[C@H]1O)c1nc(C(F)(F)F)cc2c(-c3cccc([C@H](c4nncn4C)C4CCC4)c3)n[nH]c12 (single isomer, unassigned)
124

Param request: EC50 | system C-CBL (Homo sapiens) | item C[C@H](N[C@@H](C)CO)c1nc(C(F)(F)F)cc2c(-c3cccc([C@H](c4nncn4C)C4CCC4)c3)n[nH]c12 (single isomer, unassigned)
209

Param request: EC50 | system C-CBL (Homo sapiens) | item C[C@H](NC1CC[C@H]1O)c1nc(C(F)(F)F)cc2c(-c3cccc([C@H](c4nncn4C)C4CCC4)c3)n[nH]c12 (single isomer, unassigned)
52

Param request: EC50 | system C-CBL (Homo sapiens) | item CC(c1nc(C(F)(F)F)cc2c(-c3cccc(C4(Cc5nncn5C)COC4)c3)n[nH]c12)N1CCC[C@H](C)C1 (single isomer, unassigned)
56

* * *

# TGT: CBL-B (residues 36-427) (Homo sapiens, UniProt Q13191)
# Construct: Purified CBL-B (residues 36-427) and C-CBL (residues 46-435) proteins from baculovirus-infected insect cells; made in house; host or cells: baculovirus-infected insect cells
# PROCEDURE SUMMARY: Ligand Displacement Assay (LDA), HTRF competitive binding against BODIPY-labeled fluorescent tracer, CBL-B
# CONDITION PARAMETERS: geometric mean of the number of tests, read-out: CBL-B Ki (nM) GMean
For each record, write down the corresponding Ki.
Numbers only here, please. The scale is nM.

State its Ki: CC(=O)NC(C)c1nc(C(F)(F)F)cc2c(-c3cccc([C@H](c4nncn4C)C4CCC4)c3)n[nH]c12 (single isomer, unassigned) [Example M2]
30.9

State its Ki: C[C@@H](c1nc(C(F)(F)F)cc2c(-c3cccc([C@H](c4nncn4C)C4CCC4)c3)n[nH]c12)N1CC(C)(O)C1 (single isomer, unassigned) [Example D66]
2.6

State its Ki: CCNC(C)c1nc(C(F)(F)F)cc2c(-c3cccc(C4(Cc5nncn5C)COC4)c3)n[nH]c12 (single isomer, unassigned) [Example C83]
37.1

State its Ki: CC(c1nc(C(F)(F)F)cc2c(-c3cccc(C4(Cc5nncn5C)COC4)c3)n[nH]c12)N1CCCCC1 (single isomer, unassigned) [Example C22]
24.1

State its Ki: C[C@@H](c1nc(C(F)(F)F)cc2c(-c3cccc(C4(Cc5nncn5C)COC4)c3)n[nH]c12)N1CC(F)(F)C1 (single isomer, unassigned) [Example D45]
19.9

State its Ki: C[C@H](NC1CCC1)c1nc(C(F)(F)F)cc2c(-c3cccc([C@H](c4nncn4C)C4COC4)c3)n[nH]c12 (single isomer, unassigned) [Example C123]
19.5

State its Ki: CC(=O)NCC(C)c1nc(C(F)(F)F)cc2c(-c3cccc([C@H](c4nncn4C)C4CCC4)c3)n[nH]c12 (single isomer, unassigned) [Example M4]
20.5

State its Ki: Cn1cnnc1CC1(c2cccc(-c3n[nH]c4cnc(OC(F)(F)F)cc34)c2)COC1 [Example B9]
74.5

State its Ki: C[C@@H](c1nc(C(F)(F)F)cc2c(-c3cccc(C4(Cc5nncn5C)COC4)c3)n[nH]c12)N1CC(F)C1 (single isomer, unassigned) [Example D43]
14.5

State its Ki: CC(CN)c1nc(C(F)(F)F)cc2c(-c3cccc([C@H](c4nncn4C)C4CCC4)c3)n[nH]c12 (single isomer, unassigned) [Example K15]
30.1

State its Ki: C[C@H](c1nc(C(F)(F)F)cc2c(-c3cccc(C4(Cc5nncn5C)COC4)c3)n[nH]c12)N1CC(F)(F)C1 (single isomer, unassigned) [Example D46]
46.5

State its Ki: C[C@H]1CN(Cc2nc(C(F)(F)F)cc3c(-c4cccc(C5(Cc6nncn6C)COC5)c4)n[nH]c23)CCO1 [Example C58]
14.8

* * *

# TGT: CBL-B (residues 36-427) (Homo sapiens, UniProt Q13191)
# Construct: Purified CBL-B (residues 36-427) and C-CBL (residues 46-435) proteins from baculovirus-infected insect cells; made in house; host or cells: baculovirus-infected insect cells
# PROCEDURE SUMMARY: Ligand Displacement Assay (LDA), HTRF competitive binding against BODIPY-labeled fluorescent tracer, CBL-B
# CONDITION PARAMETERS: geometric mean of the number of tests, read-out: CBL-B Ki (nM) GMean
# note: boundary value 10 nM maps to n; Ki below it maps to y

Please indicate whether the reported Ki of C[C@@H](c1nc(C(F)(F)F)cc2c(-c3cccc([C@H](c4nncn4C)C4CCC4)c3)n[nH]c12)N1CCNC(=O)C1 (single isomer, unassigned) is strictly below 10 nM.
y

Please indicate whether the reported Ki of C[C@@H](N[C@H]1C[C@@H](F)C1)c1nc(C(F)(F)F)cc2c(-c3cccc([C@H](c4nncn4C)C4CCC4)c3)n[nH]c12 (single isomer, unassigned) is strictly below 10 nM.
y

Please indicate whether the reported Ki of CC(NC1CNC1)c1nc(C(F)(F)F)cc2c(-c3cccc(C4(Cc5nncn5C)COC4)c3)n[nH]c12 (single isomer, unassigned) [Example C27] is strictly below 10 nM.
n

Please indicate whether the reported Ki of C[C@H](c1nc(C(F)(F)F)cc2c(-c3cccc([C@H](c4nncn4C)C4CCC4)c3)n[nH]c12)N1CC[C@H]1CO (single isomer, unassigned) is strictly below 10 nM.
n

Please indicate whether the reported Ki of Cn1cnnc1CC1(c2cccc(-c3n[nH]c4c(CN5CC[C@@H](F)C5)nc(C(F)(F)F)cc34)c2)COC1 is strictly below 10 nM.
n

Please indicate whether the reported Ki of Cn1cnnc1CC1(c2cccc(-c3n[nH]c4c(CN5CC(F)C5)nc(C(F)(F)F)cc34)c2)COC1 is strictly below 10 nM.
n

* * *

# TGT: CBL-B (residues 36-427) (Homo sapiens, UniProt Q13191)
# Construct: Purified CBL-B (residues 36-427) and C-CBL (residues 46-435) proteins from baculovirus-infected insect cells; made in house; host or cells: baculovirus-infected insect cells
# PROCEDURE SUMMARY: Ligand Displacement Assay (LDA), HTRF competitive binding against BODIPY-labeled fluorescent tracer, CBL-B
# CONDITION PARAMETERS: geometric mean of the number of tests, read-out: CBL-B Ki (nM) GMean
# Text: Ligand Displacement Assay (LDA) […]
RECORDED METRIC: Ki

State its Ki: Cn1cnnc1[C@@H](c1cccc(-c2n[nH]c3c(CN4CCC(F)(F)C4)nc(C(F)(F)F)cc23)c1)C1CCC1
87.9 nM

State its Ki: Cn1cnnc1[C@@H](c1cccc(-c2n[nH]c3c(CN[C@@H]4CC[C@@H](O)C4)nc(C(F)(F)F)cc23)c1)C1CCC1
12.9 nM

State its Ki: Cn1cnnc1CC1(c2cccc(-c3n[nH]c4c(CN5CCCC5)nc(C(F)(F)F)cc34)c2)COC1
34.3 nM

State its Ki: C[C@H](c1nc(C(F)(F)F)cc2c(-c3cccc(C4(Cc5nncn5C)COC4)c3)n[nH]c12)N1CC(F)C1 (single isomer, unassigned)
15.6 nM

State its Ki: Cn1cnnc1CC1(c2cccc(-c3n[nH]c4c(CNC5CC(F)(F)C5)nc(C(F)(F)F)cc34)c2)COC1
56.6 nM

State its Ki: CN(C)Cc1nc(C(F)(F)F)cc2c(-c3cccc(C4(Cc5nncn5C)COC4)c3)n[nH]c12
22 nM

State its Ki: C[C@@H](N[C@H]1COC[C@@H]1O)c1nc(C(F)(F)F)cc2c(-c3cccc([C@H](c4nncn4C)C4CCC4)c3)n[nH]c12 (single isomer, unassigned)
4.3 nM

State its Ki: Cn1cnnc1CC1(c2cccc(-c3n[nH]c4c(CN5CCNCC5)nc(C(F)(F)F)cc34)c2)COC1
31.2 nM

State its Ki: C[C@@H](N[C@H]1COC[C@H]1O)c1nc(C(F)(F)F)cc2c(-c3cccc([C@H](c4nncn4C)C4CCC4)c3)n[nH]c12 (single isomer, unassigned)
14.3 nM
